# Tested on: M14 melanoma
# test.summary: NCI tumour cell line growth inhibition, 48 h
experimental.endpoint: TGI (µM)
Numbers only, in µM.

Here is how some compounds turned out for TGI.
Suppose we examine the compound O=C1c2ccccc2-c2ccc(O)cc21 ; what TGI value has been reported?
72.7

Try this compound next: CC(=O)C1=C(O)C2(O)C(=O)c3c(c(C)c4ccc(C)c(O)c4c3O)CC2C(N)C1=O (configuration not stated)
23.1

Hi team, please reply with TGI for each item in this list.
1. CCC1=NC(N/N=C/c2ccccc2O)=N/C1=C\c1ccccc1O
2. O=C1C(Br)=C(c2ccccc2)C(c2ccccc2)=C1c1ccccc1
3. O=C(CCc1ccc(O)c(O)c1)c1ccc(O)c(O)c1O
4. CCOC(=O)c1c(-c2ccc(Cl)cc2)c(C#N)c(=S)n(C2OC(CO)C(O)C(O)C2O)c1-c1ccccc1 (configuration not stated)
5. COC(=O)C(Cc1ccccc1)C(=O)NC(CNC(=O)OCc1ccccc1)C(=O)OCc1ccccc1 (configuration not stated)

[51.9, 4.46, 41.7, 37.6, 30.4]

Hi team, please reply with TGI for each item in this list.
1. C[C@]12CC[C@H]3[C@@H](CC=C4C[C@@H](O)CC[C@@]43C)[C@@H]1C/C(=C\c1cccc(OCCCn3ccnc3)c1)[C@@H]2O
2. C/C(=C\c1ccn(-c2ccc(N)cc2C(F)(F)F)n1)[C@@H]1C[C@@H]2O[C@]2(C)CCC[C@H](C)[C@H](O)[C@@H](C)C(=O)C(C)(C)[C@@H](O)CC(=O)O1
3. c1ccc2c(OCC3CO3)ccc(OCC3CO3)c2c1 (configuration not stated)
4. O=c1oc2ccccc2c(O)c1C(c1ccc2ccccc2c1)c1c(O)c2ccccc2oc1=O
5. Cc1ccc(-c2nc3nc(-c4ccc(Cl)cc4)nc(N4CCCNCC4)c3o2)cc1
6. CC1=C(N(C)C)C(=O)c2nc3n(c2C1=O)CCC3OC(N)=O (configuration not stated)
7. CCC12CC[C@H](C#N)N3CCc4c(n(c5ccccc45)C(=O)C1)C32 (some centres not stated)
8. COc1cc(N)ccc1Nc1c2ccccc2nc2ccccc12

1: 35.7; 2: 1.56; 3: 13.3; 4: 73.2; 5: 3.34; 6: 27.4; 7: 44.9; 8: 36.2

Hi team, please reply with TGI for each item in this list.
1. Cc1nc2c(n1CCCl)C(=O)c1ccccc1C2=O
2. O=C(Nc1nc(-c2ccc(Cl)cc2)cs1)c1ccc(O)c(O)c1
3. O=c1[nH]cnc2c1nnn2[C@@H]1O[C@H](CO)[C@@H](O)[C@H]1O

1. 17.1
2. 20.5
3. 41.9

Every entry's value here was drawn from PubChem BioAssay (NCI).
